- study_system: Neu5Ac(a2-3)GalNAc
- assay_explanation: glycan array binding signal (z-score within array); higher = stronger binding
- condition_details: glycan notation: IUPAC condensed, linker removed
Many of the other results were omitted from the sample, so the strongest signals are more common in it than they were.
experimental_readout: glycan array binding signal (z-score)
Reply with the value as a number alone.

{"binder": "Vd2LysM (Verticillium dahliae) (protein) YRRTCSHTGKGEGWYIIRRGDNFNAVAADFCTSTNVLTEWNHISTITDNMVNTKIKVPCRWNAGKQRDCLKDQKSSNGWYHIVSGDELKDIAYDFCTTSGSLAGMNGISNPDYIKANTDIVVPCSWN", "observed": 0.096}

Notebook: Galatrox (Botrops atrox), P0DM53 (protein) NNCPQDWLPMNGLCYKIFDELKAWKDAEMFCRKYKPGCHLASIILYGESPEWAEGHSEVWLGLWDKKKDFSWEWTDR , glycan array binding signal (z-score) read as -0.364

Sourced from the supplement of paper PMC8728848
